molecular target: PfCDPK4 (Plasmodium falciparum (isolate 3D7), UniProt Q8IBS5); test: biochemical
Give measured EC50 for each item. Keep answers brief.
Provide only the numeric value, understood in nM.

Given CCCCOc1ccc2cc(-c3nn(C(C)C)c4ncnc(N)c34)ccc2c1 [Compound 42] , state its recorded EC50.
308

Now try Nc1ncnc2c1c(-c1ccc3oc(-c4ccccc4)nc3c1)nn2CC1CCNCC1 [Compound 120] .
214

Now try Nc1ncnc2c1c(-c1ccc3cc(OCc4ccccc4)ccc3c1)nn2CC1CCNCC1 [Compound 34] .
30.2

Now try CC(C)COc1ccc2cc(-c3nn(C(C)C)c4ncnc(N)c34)ccc2c1 [Compound 43] .
1200

Now try CC(C)n1nc(-c2ccc3cc(OCc4ccc(Cl)cc4)ccc3c2)c2c(N)ncnc21 [Compound 56] .
888

Now try CC(C)(C)n1nc(-c2ccc(NC(=O)Cc3ccccc3)cc2)c2c(N)ncnc21 [Compound 66] .
2180

Now try CC(C)Oc1ccc2cc(-c3nn(CC4CCNCC4)c4ncnc(N)c34)ccc2c1 [Compound 32] .
55.4

Now try CC(C)n1nc(-c2cc3c(Cl)cccc3[nH]2)c2c(N)ncnc21 [Compound 26] .
544

Now try Cc1cccc2[nH]c(-c3nc(C(C)(C)C)n4ccnc(N)c34)cc12 [Compound 83] .
371
